Experiment: chemical genetic growth profiling, strain panel (AID 1159580);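 also: tested at 20 µM; growth read once vehicle control cultures reached saturation at 30 °C; 1 = growth at the plate median or of vehicle wells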
Conditions: S. cerevisiae deletion strains, growth OD, locus YCL069W, strain vba3, active compounds read low
Out of some 5,500 compounds screened, about 2,000 (36%) were called active. Roughly 18% stayed inconclusive and do not appear here. This is one part of the list.
With a cut-off of 1, any normalized growth strictly below it is called Y; any normalized growth meeting it or above is called N.

Worked examples, 5 compounds total:
Query: Confirm or reject: normalized growth of CC/C(=C(\c1ccccc1)c1ccc(OCCN(C)C)cc1)c1ccccc1 lies strictly below 1
Response: Y

Query: Strictly below 1: is that where normalized growth of CO[C@H]1/C=C/O[C@@]2(C)Oc3c(C)c(O)c4c(O)c(c5c(nc6cc(C)ccn65)c4c3C2=O)NC(=O)/C(C)=C\C=C\[C@H](C)[C@H](O)[C@@H](C)C(O)[C@@H](C)[C@H](OC(C)=O)[C@@H]1C (stereo not given in full) sits?
Response: N

Query: Does this compound meet the criterion normalized growth < 1? CO[C@H]1/C=C/O[C@@]2(C)Oc3c(C)c(O)c4c(O)c(c(/C=N/N5CCN(C)CC5)c(O)c4c3C2=O)NC(=O)/C(C)=C\C=C\C(C)[C@H](O)[C@@H](C)[C@@H](O)[C@@H](C)[C@@H](OC(C)=O)[C@@H]1C (stereo not given in full)
Response: N

Query: Here's an entry: CN(C)CCOc1ccc(/C(=C(/CCCl)c2ccccc2)c2ccccc2)cc1 . Is its normalized growth below 1?
Response: Y

Query: Report whether reported normalized growth is lower than 1 (strictly) for OC[C@@H]1CCCN2CCCC[C@H]12
Response: N

***
Query: Check if normalized growth falls below 1 for O=C(O)c1ccccc1Nc1ccccc1 .
Response: Y

Query: Is normalized growth of NCCCC[C@H](N[C@@H](CCc1ccccc1)C(=O)O)C(=O)N1CCC[C@H]1C(=O)O strictly below 1?
Response: N

Query: Is normalized growth strictly under 1 for the entry C=CC(C)(O)CC/C=C(\C)CCC=C(C)C (stereo not given) ?
Response: Y

Query: A record lists COc1ccc(C(Cl)=C(c2ccc(OC)cc2)c2ccc(OC)cc2)cc1 . Is its normalized growth below 1?
Response: N

Query: Bench note: check whether O=[N+]([O-])c1ccc(O)c([N+](=O)[O-])c1 shows normalized growth below 1
Response: Y

Query: Bench note: check whether C1CCN2CC3CC(CN4CCCCC34)C2C1 (stereo not given) shows normalized growth below 1
Response: N

Query: Is it true that normalized growth reported for O=[N+]([O-])c1cc([As](=O)(O)O)ccc1O is less than 1?
Response: Y

----------
Assay: chemical genetic growth profiling, strain panel (AID 1159580)
Settings: S. cerevisiae deletion strains, growth OD, locus YNL067W, strain RPL9B
In all, about 5,500 compounds went through this assay and about 2,000 (36%) were called active. Not shown: some 18% with an inconclusive outcome. Rule as the data show it: active = normalized growth mostly below about 0.91 (no sharp cut-off); inconclusive = no clear call, values can overlap the other calls; inactive = mostly above about 0.92. The list shows a part of the results.
Would you mind answering with one of these outcomes? Y for active, N for inactive

// known answers, use as guide
Query: What outcome does the record of this test show for C1CCN2C[C@@H]3C[C@H](CN4CCCC[C@@H]34)[C@H]2C1 ?
Response: N

Query: For CCN(CC)CCOc1ccc(/C(=C(\Cl)c2ccccc2)c2ccccc2)cc1 , what call appears in the results of this test?
Response: Y

Query: Per the records of this test, what outcome belongs to C1CCN2CC3CC(CN4CCCCC34)C2C1 (configuration not stated) ?
Response: N

Query: Call for entry Nc1ccc(C(=O)NCC(=O)O)cc1 :
Response: N

Query: // return assay outcome for Oc1c(Br)cc(Br)c2cccnc12
Response: Y

Query: Outcome logged for CC/C(=C(\c1ccccc1)c1ccc(OCCN(C)C)cc1)c1ccccc1 in this assay:
Response: Y

Continuing:
Query: Tell me the recorded outcome of this test for CN[C@H](CC(=O)O)C(=O)O .
Response: N

Query: Tell me the recorded outcome of this test for CN(C)CCOC(C)(c1ccccc1)c1ccccn1 (configuration not stated) .
Response: N

Query: # fetch the recorded call for O=C(O)/C=C/C=C/c1ccccc1 here
Response: N

Query: State the result this test recorded for O=C1CCCC2C3CC(CN12)[C@@H]1CCCCN1C3 (some centres not stated) .
Response: N

Query: // param item: COc1ccc(C(Cl)=C(c2ccc(OC)cc2)c2ccc(OC)cc2)cc1 ; yields the recorded call
Response: N

Query: Per the records of this test, what outcome belongs to CN/C(=C\[N+](=O)[O-])NCCSCc1ccc(CN(C)C)o1 ?
Response: N

----------
Assay: chemical genetic growth profiling, strain panel (AID 1159580);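 also: tested at 20 µM; growth read once vehicle control cultures reached saturation at 30 °C; 1 = growth at the plate median or of vehicle wells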
Conditions: S. cerevisiae deletion strains, growth OD, locus YKR091W, strain srl3, active compounds read low
The whole screen tested about 5,500 compounds, of which about 2,000 (36%) were called active. Another 18% or so got no clear call; they are omitted. This is one part of the list.
Rule: normalized growth below 1 gives satisfied, anything at or above gives not satisfied.

Query: State whether 1 exceeds normalized growth recorded for COc1ccc(C(Cl)=C(c2ccc(OC)cc2)c2ccc(OC)cc2)cc1 .
Response: not satisfied

Query: Is normalized growth strictly under 1 for the entry CN(C)CCOc1ccc(/C(=C(/CCCl)c2ccccc2)c2ccccc2)cc1 ?
Response: satisfied

Query: Item CCN(CC)CCNC(=O)c1cc(S(C)(=O)=O)ccc1OC : normalized growth beneath 1, strictly?
Response: satisfied

***
Query: Record CC(=O)Oc1ccc(Cl)c2cccnc12 : is its normalized growth strictly below 1?
Response: satisfied

----------
Test: chemical genetic growth profiling, strain panel (AID 1159580);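 also: tested at 20 µM; growth read once vehicle control cultures reached saturation at 30 °C; 1 = growth at the plate median or of vehicle wells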
Conditions: S. cerevisiae deletion strains, growth OD, locus YOR270C, strain vph1
Out of some 5,500 compounds screened, about 2,000 (36%) were called active. Inconclusive results (about 18%) are left out. Cut-off read from the data, not from the text of the source: active = normalized growth mostly below about 0.91 (no sharp cut-off); inconclusive = no clear call, values can overlap the other calls; inactive = mostly above about 0.92. This is one part of the list.
Respond with a class label; see active, inactive

Query: So what was the verdict on CN/C(=C\[N+](=O)[O-])NCCSCc1ccc(CN(C)C)o1 in this test?
Response: inactive

Query: Please let me know the test result on file for Nc1ccc(S(=O)(=O)Nc2ccccn2)cc1 .
Response: inactive

Query: Per the records of this test, what outcome belongs to CO[C@H]1/C=C/O[C@@]2(C)Oc3c(C)c(O)c4c(O)c(c5c(nc6cc(C)ccn65)c4c3C2=O)NC(=O)/C(C)=C\C=C\[C@H](C)[C@H](O)[C@@H](C)C(O)[C@@H](C)[C@H](OC(C)=O)[C@@H]1C (stereo not given in full) ?
Response: inactive

Further cases:
Query: Test call, this molecule: C/C=C/c1ccc2c(c1)OCO2
Response: inactive

Query: Test call for this molecule, please: CC(=O)c1c(O)c(C)c(O)c2c1OC1=CC(=O)C(C(C)=O)C(=O)C12C (stereo not given)
Response: inactive

Query: # outcome recorded in this test, key = Oc1c(I)cc(I)c2cccnc12
Response: active

Query: What was the test verdict on Nc1ccc(C(=O)NCC(=O)O)cc1 ?
Response: inactive

Query: Recorded test call requested for CC(C)=CCC/C(C)=C/CC/C(C)=C/CC/C(C)=C/CC/C(C)=C/CC/C(C)=C/CC/C(C)=C/CC/C(C)=C/CC/C(C)=C/CO
Response: inactive

Query: // outcome(item) with item = C[n+]1cccc(C(=O)[O-])c1
Response: inactive

Query: Hi, sorry to bother you, what did the test record for Cc1ccsc1/C=C/C1=NCCCN1C ?
Response: inactive

----------
Assay: chemical genetic growth profiling, strain panel (AID 1159580);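 also: tested at 20 µM; growth read once vehicle control cultures reached saturation at 30 °C; 1 = growth at the plate median or of vehicle wells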
Conditions: S. cerevisiae deletion strains, growth OD, locus YEL003W, strain gim4, active compounds read low
Screen size: about 5,500 compounds; about 2,000 (36%) were called active. Not shown: some 18% with an inconclusive outcome. Some of the results follow.
Property: normalized growth; scope: individual compounds
Reply briefly: the number, and no unit.

Query: May I ask what normalized growth has been recorded for NC[C@H](O)c1ccc(O)c(O)c1 ?
Response: 0.986

Query: Which value of normalized growth has been reported for CC(=O)NCCCCCC(=O)O in the records?
Response: 0.969

Query: For O=C1C=CC2=C3c4cc(O)c(O)cc4C[C@@]3(O)COC2=C1 , what is its reported normalized growth?
Response: 0.989

Query: Which normalized growth value is on record for C=C(NC(=O)C(=C)NC(=O)c1csc(C2=NC3c4csc(n4)C4NC(=O)c5csc(n5)C(C(C)(O)C(C)O)NC(=O)C5CSC(=N5)C(=CC)NC(=O)C(C(C)O)NC(=O)c5csc(n5)C3(CC2)NC(=O)C(C)NC(=O)C(=C)NC(=O)C(C)NC(=O)C(C(C)CC)NC2C=Cc3c(C(C)O)cc(nc3C2O)C(=O)OC4C)n1)C(N)=O (configuration not stated) ?
Response: 1.01

Query: I would be grateful if you could share the reported normalized growth for CNC[C@@H](O)c1ccc(O)c(O)c1 .
Response: 1

New cases:
Query: normalized growth lookup needed for CN(C)CCOC(C)(c1ccccc1)c1ccccn1 (configuration not stated) , thanks.
Response: 1.01

Query: # lookup: normalized growth of CC/C(=C(\c1ccccc1)c1ccc(OCCN(C)C)cc1)c1ccccc1
Response: 0.127

Query: Give its normalized growth value. Item: CC(=O)c1c(O)c(C)c(O)c2c1OC1=CC(=O)C(C(C)=O)C(=O)C12C (configuration not stated)
Response: 0.787

Query: Data request, read-out normalized growth, for CN1C(CC(=O)c2ccccc2)CCCC1CC(O)c1ccccc1 (configuration not stated)
Response: 0.991

Query: // normalized growth lookup, key: Cc1ccc2c(Cl)cc(Cl)c(O)c2n1
Response: 1.01

Query: Need normalized growth of CS(=O)(=O)CCCCN=C=S , thanks.
Response: 0.217

Query: # get_value(readout='normalized growth', item= CC(C)NCC(O)c1ccc(O)c(O)c1 (configuration not stated) )
Response: 1.01

Query: Find the recorded normalized growth belonging to Oc1ccc(Cl)c2cccnc12 and report it.
Response: 0.0561

Query: Please report the recorded normalized growth for COc1cc(C(=O)NCc2ccc(OCCN(C)C)cc2)cc(OC)c1OC .
Response: 1
